experiment: melting temperature; fluorescence melt of hairpins on a sequencing array, two-state fit, raised by 9.35 °C to match UV melts; details: sodium 0.088 M
Param label: returns criterion met when Tm < 40 °C, returns criterion not met otherwise, including exact equality.

| input-sequence | answer-label |
| --- | --- |
| GCCTTTCGAAAGAACGGC (((.(((....))).))) | criterion not met |
| ATCCAGAAATGGAT (((((....))))) | criterion not met |
| GGAAACCGAAAGGTCTCC (((.(((....))).))) | criterion not met |
| GTAAAACGAAAGTTGTAC (((.(((....))).))) | criterion met |
| GCTCAAGGAAACCTGAGC (((((.(....).))))) | criterion not met |
| GCAGGGCGAAAGCTATGC (((..((....))..))) | criterion not met |

Tm under 40 °C? Item: GATCATGTGCATGATC ((((((....))))))
criterion not met

Tm under 40 °C? Item: GATCTCAGAAGAGATC ((((((....))))))
criterion not met

Tm under 40 °C? Item: GGCTGTGGAAACGTAGCC ((((..(....)..))))
criterion not met

Tm under 40 °C? Item: GATACAGGAAACTGCATC (((.(((....))).)))
criterion met

Tm under 40 °C? Item: GATCGGGCTCCGATC ((((((...))))))
criterion not met

Tm under 40 °C? Item: GCTGTTACGAAAGTAAGC (((..(((....))))))
criterion met

Tm under 40 °C? Item: GCTCGGCGAAAGCTGGGC ((.(.((....)).).))
criterion not met

Tm under 40 °C? Item: GATGGTGGAAACACCATC (((((((....)))))))
criterion not met
